Target: BSA (UniProt P02769)
Sequence (P02769 25-607 limits assumed): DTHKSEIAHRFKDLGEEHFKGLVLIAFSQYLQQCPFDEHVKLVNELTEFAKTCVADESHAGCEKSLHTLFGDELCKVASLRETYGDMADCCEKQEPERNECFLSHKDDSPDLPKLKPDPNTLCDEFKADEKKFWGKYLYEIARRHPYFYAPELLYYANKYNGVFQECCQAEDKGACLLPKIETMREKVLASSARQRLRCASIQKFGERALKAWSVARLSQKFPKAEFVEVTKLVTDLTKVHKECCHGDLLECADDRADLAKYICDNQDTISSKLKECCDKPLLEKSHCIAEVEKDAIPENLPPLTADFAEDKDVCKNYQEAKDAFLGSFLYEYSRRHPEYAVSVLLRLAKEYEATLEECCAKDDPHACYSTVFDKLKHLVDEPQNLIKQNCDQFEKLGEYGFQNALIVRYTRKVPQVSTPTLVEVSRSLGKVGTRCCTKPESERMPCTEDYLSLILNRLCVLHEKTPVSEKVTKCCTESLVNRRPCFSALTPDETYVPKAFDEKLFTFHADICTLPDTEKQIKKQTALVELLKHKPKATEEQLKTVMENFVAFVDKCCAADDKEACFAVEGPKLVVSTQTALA
Experiment: scFv ELISA
recorded_endpoint: OD450 (OD450)
Answer in OD450, number only, no unit symbol.

INSERT INTO measurements (binder, val) VALUES
  ('PcOxP_DB03_D12 (scFv, V domains shown, scFv in periplasmic extract) VH: EVQLLESGGGLVQPGGSLRLSCAASGFTNSDFYMEWVRQAPGKGLEWVAASRNKANDYTTELADSVKGRFTISRDNSKNTLYLQMNSLRAEDTAVYYCARDYYGSSYWYFDVWGQGTLVTVSS VL: DIVMTQSPDSLAVSLGERATINCTASESLYSSKHKVHYLAWYQQKPGQPPKLLIYGASNRYIGVPDRFSGSGSGTDFTLTISSLQAEDVAVYYCAQFYSYPLTFGGGTKVEIK', 0.06);

Switching to the query record.
Fill in: OD450 of PcOxP_DB03_F02 (scFv, V domains shown, scFv in periplasmic extract) VH: EVQLLESGGGLVQPGGSLRLSCAASGFTFSSYYMEWVRQAPGKGLEWVAASRNKANDYTTEYADSVKGRFTISRDNSKNTLYLQMNSLRAEDTAVYYCARDYYDSSYWYFDVWGQGTLVTVSS VL: DIVMTQSPDSLAVSLGERATINCTSSESLLSSKHKVHYLAWYQQKPGQPPKLLIYGASNRYTGVPDRFSGSGSGTDFTLTISSLQAEDVAVYYCAQFYSYPLTFGGGTKVEIK is ___
0.07
